tested on: A549; assay: Antiproliferative activity against human A549 cells assessed as reduction in cell viability after 72 hrs by MTT assay; type: functional, cell-based; settings: A549, 72 h

- SMILES_STRUCTURE: "Cc1ccc(-n2nc(C(=O)Nc3ccc(Oc4ccnc(C(=O)NCCc5cccs5)c4)cc3)c(C)cc2=O)cc1"
  UNIT_DESCRIPTOR: "µM"
  IC50: 965
- SMILES_STRUCTURE: "CCCNC(=O)c1cc(Oc2ccc(NC(=O)c3nn(-c4ccc(Br)cc4F)c(=O)cc3C)cc2F)ccn1"
  UNIT_DESCRIPTOR: "µM"
  IC50: 235
- SMILES_STRUCTURE: "CCNC(=O)c1cc(Oc2ccc(NC(=O)c3nn(-c4ccc(C)cc4)c(=O)cc3C)cc2)ccn1"
  UNIT_DESCRIPTOR: "µM"
  IC50: 11.6
- SMILES_STRUCTURE: "CCNC(=O)c1cc(Oc2ccc(NC(=O)c3nn(-c4ccc(Br)cc4F)c(=O)cc3C)cc2)ccn1"
  UNIT_DESCRIPTOR: "µM"
  IC50: 34.5

Numbers sourced from ChEMBL document CHEMBL4627334.
